Measured values drawn from ChEMBL document CHEMBL5058577 for this set.

Would you mind telling me the reported Population Hoechst High Intensity Objects (%) of each entry?
tested on: HEK-293T; assay: Multiplex assay against HEK293T; type: toxicity, cell-based; conditions: human, 24 h, 10 µM, compound concentration 10 uM, replicate 1
Numbers only, in %.

Guide cases for Population Hoechst High Intensity Objects (%), answers given:
COMPOUND: Cc1ccc(-c2ccc(F)cc2COc2ccc(CCC(=O)O)cc2)cc1
READOUT NUMBER: 5
//
COMPOUND: Cc1ccc(C(C)(O)c2nc3ccccc3s2)c(C)c1 (stereo not given)
READOUT NUMBER: 8
//
COMPOUND: CN(C)c1ccnc2sc3c(=O)n(N4CCCCCC4)cnc3c12
READOUT NUMBER: 8
//
COMPOUND: CN(C)CCCc1cc(C(=O)Nc2ccc(-c3ccncc3)cc2)ccc1O.Cl.Cl
READOUT NUMBER: 5

Prompt line: Consider the compound shown here: Cl.Clc1ccc2nsnc2c1NC1=NCCN1 [TIZANIDINE HYDROCHLORIDE] What is its recorded Population Hoechst High Intensity Objects (%)?
Response line: 5

* * *

system: U2OS; experiment: Multiplex assay against U2OS; type: toxicity, cell-based; conditions: human, 24 h, 1 µM, compound concentration 1 uM, replicate 1
MEASUREMENT KIND: Total Cell Count

Guide cases for Total Cell Count, answers given:
MOLECULE: CSc1ccccc1N1CCN(CCCCCC(=O)NC2CCCc3ccccc32)CC1.Cl (configuration not stated)
RESULT: 250

MOLECULE: CN(C)c1ccnc2sc3c(=O)n(N4CCCCCC4)cnc3c12
RESULT: 326

MOLECULE: Cc1ccc(F)cc1C(=O)Nc1ccc(C(=O)N2Cc3cccn3Cc3ccccc32)c(Cl)c1
RESULT: 257

MOLECULE: Cc1ccccc1C(=O)Nc1ccc(C(=O)N2CCCC(N(C)C)c3ccccc32)cc1.Cl (configuration not stated)
RESULT: 333

MOLECULE: COc1cc(NC(=O)CCN2CCC(OC(=O)Nc3ccccc3-c3ccccc3)CC2)c(Cl)cc1CNC[C@H](O)c1ccc(O)c2[nH]c(=O)ccc12
RESULT: 182

Would you be so kind as to report Total Cell Count for each listed record?
1. CN(C)CCCc1cc(C(=O)Nc2ccc(-c3ccncc3)cc2)ccc1O.Cl.Cl
2. CC(C)(C)c1ccc(S(=O)(=O)Nc2ccc(Cl)cc2C(=O)c2cc[n+]([O-])cc2)cc1

Response line:
247
357

* * *

Would you mind telling me the reported Population Fragmented Nuclei (%) of each entry?
system: HEK-293T; assay: Multiplex assay against HEK293T; type: toxicity, cell-based; conditions: human, 24 h, 1 µM, compound concentration 1 uM, replicate 1
Give bare numbers, in %.

Guide cases for Population Fragmented Nuclei (%), answers given:
COMPOUND: CN1CCN2c3ncccc3Cc3ccccc3C2C1 (configuration not stated)
MEASUREMENT KIND: Population Fragmented Nuclei (%)
UNIT INFO: %
READOUT NUMBER: 9

COMPOUND: CC[C@H]1OC(=O)[C@H](C)[C@@H](O[C@H]2C[C@@](C)(OC)[C@@H](O)[C@H](C)O2)[C@H](C)[C@@H](O[C@@H]2O[C@H](C)C[C@H](N(C)C)[C@H]2O)[C@@]2(C)CC(C)=C(O2)[C@H](C)[C@@H](O)[C@]1(C)O
MEASUREMENT KIND: Population Fragmented Nuclei (%)
UNIT INFO: %
READOUT NUMBER: 8

COMPOUND: O=S(=O)(c1ccccc1)c1cnc2c(N3CCNCC3)cccc2c1 [INTEPIRDINE]
MEASUREMENT KIND: Population Fragmented Nuclei (%)
UNIT INFO: %
READOUT NUMBER: 6

Would you be so kind as to report Population Fragmented Nuclei (%) for each listed record?
1. c1cc(OCCCN2CCCCC2)ccc1CN1CCCCC1
2. CNC[C@H](O)c1ccc(O)c(O)c1 [EPINEPHRINE]
3. Cc1ccc(F)cc1C(=O)Nc1ccc(C(=O)N2Cc3cccn3Cc3ccccc32)c(Cl)c1
4. CCNC1(C(N)=O)CCN(c2ncnc3c2nc(-c2ccccc2Cl)n3-c2ccc(Cl)cc2)CC1
5. COc1cc(NC(=O)CCN2CCC(OC(=O)Nc3ccccc3-c3ccccc3)CC2)c(Cl)cc1CNC[C@H](O)c1ccc(O)c2[nH]c(=O)ccc12
6. CC(=O)NCCc1c(Cc2ccccc2)[nH]c2ccccc12
7. O=C1COc2nccc(-c3ccccc3F)c2CN1Cc1cc(C(F)(F)F)cc(C(F)(F)F)c1
8. C[C@H](NC(=O)c1c(C(F)F)nn(C)c1Oc1cccc(C(F)(F)F)c1)c1ccc(C(=O)O)cc1

Response line:
[6, 9, 9, 8, 9, 12, 8, 9]

Prompt line: Consider the compound shown here: CSc1ccccc1N1CCN(CCCCCC(=O)NC2CCCc3ccccc32)CC1.Cl (configuration not stated) What is its recorded Population Fragmented Nuclei (%)?
Response line: 8

* * *

Would you mind telling me the reported Population Hoechst High Intensity Objects (%) of each entry?
tested on: Fibroblast; assay: Multiplex assay against human fibroblast; type: toxicity, cell-based; settings: 48 h, 10 µM, compound concentration 10 uM, replicate 1

Guide cases for Population Hoechst High Intensity Objects (%), answers given:
COMPOUND: CCOc1c2c(c(OCC)c3ncccc13)CN(c1ccc(CS(=O)(=O)NC(=O)Cc3ccccc3OC)cc1C)C2=O
RESULT: 7%

COMPOUND: Cc1ccccc1C(=O)Nc1ccc(C(=O)N2CCCC(N(C)C)c3ccccc32)cc1.Cl (stereo not drawn)
RESULT: 7%

Turning now to a further record.
Prompt line: Consider the compound shown here: Cc1ccc(/C(=C\CN2CCCC2)c2ccccn2)cc1 [TRIPROLIDINE] What is its recorded Population Hoechst High Intensity Objects (%)?
Response line: 7%

* * *

tested on: Fibroblast; assay: Multiplex assay against human fibroblast; format: toxicity, cell-based; settings: 12 h, 10 µM, compound concentration 10 uM, replicate 2
Would you mind telling me the reported Population Pyknosed Nuclei (%) of each entry?
Answers are plain numbers, in %.

Guide cases for Population Pyknosed Nuclei (%), answers given:
COMPOUND: O=C(NCCO)c1cccc(-c2cc(Nc3ccc(OC(F)(F)F)cc3)ncn2)c1
READOUT NUMBER: 40
//
COMPOUND: O=C1COc2nccc(-c3ccccc3F)c2CN1Cc1cc(C(F)(F)F)cc(C(F)(F)F)c1
READOUT NUMBER: 23
//
COMPOUND: CC(C)(C)c1ccc(S(=O)(=O)Nc2ccc(Cl)cc2C(=O)c2cc[n+]([O-])cc2)cc1
READOUT NUMBER: 25

Would you be so kind as to report Population Pyknosed Nuclei (%) for each listed record?
1. COc1cc(NC(=O)CCN2CCC(OC(=O)Nc3ccccc3-c3ccccc3)CC2)c(Cl)cc1CNC[C@H](O)c1ccc(O)c2[nH]c(=O)ccc12
2. C[C@@H]1C[C@H]2[C@@H]3CCC4=CC(=O)C=C[C@]4(C)[C@@]3(F)[C@@H](O)C[C@]2(C)[C@@]1(O)C(=O)CO
3. Cc1ccc(/C(=C\CN2CCCC2)c2ccccn2)cc1
4. COc1cc(C(=O)N(CCCc2ccccc2)Cc2ccc(CC(=O)O)cc2)cc(OC)c1C

Response line:
13
23
21
13

* * *

Would you mind telling me the reported Population Pyknosed Nuclei (%) of each entry?
test system: Fibroblast; test: Multiplex assay against human fibroblast; format: toxicity, cell-based; conditions: 12 h, 10 µM, compound concentration 10 uM, replicate 2
Give bare numbers, in %.

Guide cases for Population Pyknosed Nuclei (%), answers given:
MOLECULE: Cc1ccc(F)cc1C(=O)Nc1ccc(C(=O)N2Cc3cccn3Cc3ccccc32)c(Cl)c1
UNIT INFO: %
Population Pyknosed Nuclei (%): 25
--
MOLECULE: N#Cc1c(N)nc(SCc2csc(-c3ccc(Cl)cc3)n2)c(C#N)c1-c1ccc(OCCO)cc1
UNIT INFO: %
Population Pyknosed Nuclei (%): 29
--
MOLECULE: CC(=O)NCCc1c(Cc2ccccc2)[nH]c2ccccc12
UNIT INFO: %
Population Pyknosed Nuclei (%): 13
--
MOLECULE: Cc1ccccc1C(=O)Nc1ccc(C(=O)N2CCCC(N(C)C)c3ccccc32)cc1.Cl (stereo unspecified)
UNIT INFO: %
Population Pyknosed Nuclei (%): 23
--
MOLECULE: O=C(NCC(=O)N1CC[C@H](N[C@H]2CC[C@@](O)(c3ccc(-c4ncccn4)cn3)CC2)C1)c1cccc(C(F)(F)F)c1
UNIT INFO: %
Population Pyknosed Nuclei (%): 23

Turning now to a further record.
Prompt line: Consider the molecule shown here: COc1ccc2c(c1)C(C(=O)N(Cc1ccc(N(C)C)cc1)c1ccc(C(C)C)cc1)CCC2.Cl (stereo unspecified) What is its recorded Population Pyknosed Nuclei (%)?
Response line: 10
